ASSAY TARGET: T1, IL-10 receptor (IL-10R: IL10RA and IL10RB) on HEK-Blue IL-10 reporter cells (UniProt Q13651 22-578; Q08334 20-325, limits assumed)
T1 sequence (looked up) 1: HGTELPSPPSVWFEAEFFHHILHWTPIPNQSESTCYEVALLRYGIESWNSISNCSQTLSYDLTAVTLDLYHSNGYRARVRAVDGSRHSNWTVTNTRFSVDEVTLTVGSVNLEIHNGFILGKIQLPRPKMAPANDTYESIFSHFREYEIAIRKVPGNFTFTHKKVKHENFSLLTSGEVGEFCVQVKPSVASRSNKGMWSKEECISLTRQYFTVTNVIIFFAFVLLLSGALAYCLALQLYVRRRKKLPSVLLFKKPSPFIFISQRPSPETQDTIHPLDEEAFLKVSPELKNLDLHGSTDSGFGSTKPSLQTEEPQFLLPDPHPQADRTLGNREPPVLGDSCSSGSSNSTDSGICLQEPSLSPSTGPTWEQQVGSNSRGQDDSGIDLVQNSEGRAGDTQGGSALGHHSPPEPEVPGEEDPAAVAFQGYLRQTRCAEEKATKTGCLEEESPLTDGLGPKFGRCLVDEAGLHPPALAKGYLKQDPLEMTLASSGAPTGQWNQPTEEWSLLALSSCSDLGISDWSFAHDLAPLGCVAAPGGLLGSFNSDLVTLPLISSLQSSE
T1 sequence (looked up) 2: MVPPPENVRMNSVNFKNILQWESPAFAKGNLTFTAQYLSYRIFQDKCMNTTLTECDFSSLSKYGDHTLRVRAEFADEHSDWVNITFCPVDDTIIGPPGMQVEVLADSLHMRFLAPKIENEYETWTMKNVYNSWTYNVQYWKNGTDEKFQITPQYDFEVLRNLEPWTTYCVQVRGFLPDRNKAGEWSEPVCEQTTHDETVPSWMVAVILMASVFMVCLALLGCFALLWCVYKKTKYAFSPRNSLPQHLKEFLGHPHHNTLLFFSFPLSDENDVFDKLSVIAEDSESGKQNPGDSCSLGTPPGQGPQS
MEASUREMENT NOTES: cell-based or functional assay
VALUE TYPE: IL-10 EC-50, HEK-Blue IL-10 reporter cells
Just the number, please, no unit after it.

-- ask For the binder shown here, foldikine10-HiBit (ligand) MTQSENSCTHFPGNLPNMLRDLRDAFSRVKTFFQMKDQLDNLLLKESLLEDFKGYLGCQALSEMIQFYLEEVMPQAENQEPDIKAHVNSLGENLKTLRLRLRRCHRFLPCENKSKAVEQVKNAFNKLQEKGIYKAMSEFDIFINYIEAYMTMNNGGLDYLPNMLRDLRDAFSRVKTFFQMKDQLDNLLLKESLLEDFKGYLGCQALSEMIQFYLEEVMPQAENQDPDIKAHVNSLGENLKTLRLRLRRNHRFLPCENKSKAVEQVKNAFNKLQEKGIYKAMSEFDIFINYIEAYMTMKIRNGGVSGWRLFKKIS , give the reported IL-10 EC-50, HEK-Blue IL-10 reporter cells.
-- reply 2.14e-10
